Below: a set of entries, each annotated with reported log10 IC50.
EXPERIMENTAL_TARGET: human P2X2/3 receptor (Homo sapiens (Human), UniProt P56373+Q9UBL9)
Sequence (P56373 whole entry): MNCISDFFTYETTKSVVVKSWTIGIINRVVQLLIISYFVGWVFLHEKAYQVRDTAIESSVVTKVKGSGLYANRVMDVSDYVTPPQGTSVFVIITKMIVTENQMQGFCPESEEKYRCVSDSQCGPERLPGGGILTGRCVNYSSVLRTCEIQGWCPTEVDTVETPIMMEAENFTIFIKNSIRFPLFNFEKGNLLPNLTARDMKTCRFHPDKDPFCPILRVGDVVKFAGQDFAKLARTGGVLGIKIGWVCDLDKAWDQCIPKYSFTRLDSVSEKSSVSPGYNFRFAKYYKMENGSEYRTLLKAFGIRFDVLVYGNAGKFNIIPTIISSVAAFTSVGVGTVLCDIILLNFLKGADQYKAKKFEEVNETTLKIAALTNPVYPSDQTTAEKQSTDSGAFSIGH
Sequence (Q9UBL9 whole entry): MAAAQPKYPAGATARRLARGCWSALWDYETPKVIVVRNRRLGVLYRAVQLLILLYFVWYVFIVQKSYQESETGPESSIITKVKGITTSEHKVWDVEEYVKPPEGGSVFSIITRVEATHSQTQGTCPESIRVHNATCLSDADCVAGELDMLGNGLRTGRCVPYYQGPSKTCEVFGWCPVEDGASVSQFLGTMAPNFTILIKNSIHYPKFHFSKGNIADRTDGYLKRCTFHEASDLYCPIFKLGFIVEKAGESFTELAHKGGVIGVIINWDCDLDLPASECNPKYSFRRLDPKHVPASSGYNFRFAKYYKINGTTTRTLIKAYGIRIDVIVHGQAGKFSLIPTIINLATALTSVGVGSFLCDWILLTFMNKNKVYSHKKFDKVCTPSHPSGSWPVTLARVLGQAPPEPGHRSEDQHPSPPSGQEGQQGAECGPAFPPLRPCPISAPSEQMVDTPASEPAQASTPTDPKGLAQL
ASSAY_NAME: Intracellular calcium measurement (FLIPR, Fluo-4) of antagonist activity at human P2X2/3 receptors
Assay type: cell-based
MEASUREMENT_SETUP: human P2X2/3, FLIPR calcium assay, agonist α,β-Me-ATP; read-out: hP2X2/3 IC50
The common logarithm of IC50 in nM is what is listed.

Consider the worked cases shown below.
- Cc1cnc(-c2cc(OC3CCNCC3F)cc(C(=O)N[C@H](C)c3cnc(C(F)(F)F)nc3)c2)s1 (stereo partly drawn): 1.91
- CC(C)c1cnc(-c2cc(OC[C@H]3CCCO3)cc(C(=O)N[C@H](C)c3cnc(C(F)(F)F)nc3)c2)s1: 2.28
- Cc1ccc([C@@H](C)NC(=O)c2cc(OC[C@H]3CCCO3)cc(-c3ncc(C(C)C)s3)c2)nn1: 2.40
- Cc1cnc(-c2cc(O[C@H]3CCN(C)C3)cc(C(=O)N[C@H](C)c3cnc(C(F)(F)F)nc3)c2)s1: 2.35
- Cc1cnc(-c2cc(OC[C@@H]3CN(C)CCO3)cc(C(=O)NCc3cnc(C(F)(F)F)nc3)c2)s1: 3.04

// below: log10 IC50 requested for another molecule
**Q:** Dear colleague, I am looking for the recorded log10 IC50 of the following molecule: Cc1cnc([C@@H](C)NC(=O)c2cc(Oc3ccnc(C)c3)cc(-c3ncc(C)s3)c2)cn1
**A:** 1.76

###

Below: a set of entries, each annotated with reported log10 of IC50.
EXPERIMENTAL_TARGET: human P2X3 receptor (Homo sapiens (Human), UniProt P56373)
Sequence (P56373 whole entry): as the sequence (P56373 whole entry) above
ASSAY_NAME: Intracellular calcium measurement (FLIPR, Fluo-4) of antagonist activity at human P2X3 receptors
Assay type: cell-based
MEASUREMENT_SETUP: read-out: hP2X3 IC50
The common logarithm of IC50 in nM is what is listed.

Consider the worked cases shown below.
• Cc1cnc(-c2cc(OC3CCN(C(=O)OC(C)(C)C)CC3)cc(C(=O)N[C@H](C)c3cnc(C(F)(F)F)nc3)c2)s1 [Example 137] = 1.41
• Cc1cnc(-c2cc(OC[C@H]3COCCN3C)cc(C(=O)N[C@H](C)c3ccc(C(F)(F)F)nc3)c2)s1 [Example 363] = 1.08
• Cc1cnc(-c2cc(OC[C@@H]3COCC(=O)N3)cc(C(=O)N[C@H](C)c3cnc(C(F)(F)F)nc3)c2)s1 [Example 403] = 1.75
• Cc1cnc(CNC(=O)c2cc(O[C@@H]3CCOC3)cc(-c3ncc(C)s3)c2)cn1 [Example 12] = 2.45

**Q:** Dear colleague, I am looking for the recorded log10 of IC50 of the following compound: Cc1cnc([C@@H](C)NC(=O)c2cc(Oc3nccs3)cc(-c3ncc(C)s3)c2)cn1 [Example 112]
**A:** 1.79

**Q:** Dear colleague, I am looking for the recorded log10 of IC50 of the following compound: Cc1ncc([C@@H](C)NC(=O)c2cc(O[C@@H]3CCOC3)cc(-c3ncc(C)s3)c2)cn1 [Example 23]
**A:** 1.48

**Q:** Dear colleague, I am looking for the recorded log10 of IC50 of the following compound: Cc1cnc(-c2cc(O[C@@H]3CN4CCC3CC4)cc(C(=O)N[C@H](C)c3ccc(C(F)(F)F)nc3)c2)s1 [Example 175]
**A:** 1.36

**Q:** Dear colleague, I am looking for the recorded log10 of IC50 of the following compound: Cc1cnc(-c2cc(OC[C@@H]3CN(C)CCO3)cc(C(=O)N[C@@H](C)c3cnc(C(F)(F)F)nc3)c2)s1 [Example 417]
**A:** 2.64

**Q:** Dear colleague, I am looking for the recorded log10 of IC50 of the following compound: Cc1cnc(-c2cc(O[C@@H]3CN4CCC3CC4)cc(C(=O)N[C@H](C)c3cnc(C(F)(F)F)nc3)c2)s1 [Example 192]
**A:** 1.08

**Q:** Dear colleague, I am looking for the recorded log10 of IC50 of the following compound: CCc1cnc(-c2cc(O[C@@H]3CN4CCC3CC4)cc(C(=O)N[C@H](C)c3cnc(C(F)(F)F)nc3)c2)s1 [Example 173]
**A:** 0.70

**Q:** Dear colleague, I am looking for the recorded log10 of IC50 of the following compound: Cc1cnc(-c2cc(O[C@H]3CN4CCC3CC4)cc(C(=O)N[C@H](C)c3cnc(C(F)(F)F)nc3)c2)s1 [Example 168]
**A:** 1.28
